These entries and their values trace back to PubChem BioAssay (EPA / NIEHS).

ASSAY_TARGET: Luciferin 4-monooxygenase (Photinus pyralis)
EXPERIMENTAL_PROTOCOL: CCTE_Simmons_QuantiLum_inhib_2: CCTE's Firefly Luciferase Inhibition Assay, Simmons Lab (AID 2283767)
Inconclusive results are not listed. Calls of active or inactive are those of the source. How the source made its calls: active means hit-call score of the fitted dose curve at least 0.9, where 1 is the maximum; inconclusive means response in the unintended direction; inactive means score below 0.9.
Respond with a class label; see T = active, F = inactive

As a guide, the following entries are already answered.
1. COP(=O)(NC(C)=O)SC (stereo not drawn)	T
2. CCCSP(=O)(OCC)Oc1ccc(Br)cc1Cl (stereo not drawn)	F

Proceed to the following item.
Tell me the recorded outcome of this test for `N#CSCSC#N` .
T

---

EXPERIMENTAL_PROTOCOL: CCTE_Mundy_HCI_Cortical_Synap_Neur_Matur_NeuriteLength: CCTE's Synaptogenesis and Neurite Maturation Assay in rat cortical cells for Neurite Length, Mundy Lab (AID 2284214)
The source made the active and inactive calls. How the source made its calls: active means hit-call score of the fitted dose curve at least 0.9, where 1 is the maximum; inactive means score below 0.9.
OBSERVATION_TYPE: AC50

// below: answered molecules
1. COP(=O)(NC(C)=O)SC (stereo not given)	inactive
2. CCOP(=S)(OCC)Oc1cc(C)nc(C(C)C)n1	50 µM (active)
3. CCOP(=S)(OCC)Oc1ccc2c(C)c(Cl)c(=O)oc2c1	50 µM (active)
4. COP(=O)(OC)C(O)C(Cl)(Cl)Cl (stereo not given)	36.9 µM (active)
5. O=[N+]([O-])c1cc(C(F)(F)F)c(Cl)c([N+](=O)[O-])c1Nc1ncc(C(F)(F)F)cc1Cl	0.924 µM (active)

Please report the measured AC50 for `CCCSP(=O)(OCC)SCCC`
inactive

Please report the measured AC50 for `CCOP(=O)(OCC)Oc1cc(C)nc(C(C)C)n1`
inactive

Please report the measured AC50 for `CON=C(C(=O)OC)c1ccccc1CON=C(C)c1cccc(C(F)(F)F)c1`
0.954 µM (active)

Please report the measured AC50 for `CSC1=N[C@@](C)(c2ccccc2)C(=O)N1Nc1ccccc1`
inactive

Please report the measured AC50 for `S=C1NCCN1`
inactive

---

Read-out: BCL2L11 (gene 10018)
EXPERIMENTAL_PROTOCOL: LTEA_HepaRG_BCL2L11: Life Technologies and Expression Analysis (LTEA) Assay for Bcl-2 (BCL2L11) gene using HepaRG (AID 2283473)
CONDITION_NOTES: mRNA level, 48 h; actives raise or lower the signal
Activity calls are given as the source filed them. The calls were made as follows: active = hit-call score of the fitted dose curve at least 0.9, where 1 is the maximum; inactive = score below 0.9.
Respond with a class label; see YES (active), NO (inactive)

As a guide, the following entries are already answered.
1) CC(Oc1cccc(Cl)c1)C(=O)O (stereo not drawn)	NO
2) CC1=NNC(=O)N(/N=C/c2cccnc2)C1	NO
3) CCCCN(CC)c1c([N+](=O)[O-])cc(C(F)(F)F)cc1[N+](=O)[O-]	NO
4) C[N+]1(C)CCCCC1	NO
5) N#CSCSC#N	YES
6) CCOP(=S)(Oc1cnc(C(C)(C)C)nc1)OC(C)C (stereo not drawn)	NO
7) CC(C1CC1)C(O)(Cn1cncn1)c1ccc(Cl)cc1 (stereo not drawn)	NO
8) CCC(=NOC/C=C/Cl)C1=C(O)CC(C2CCOCC2)CC1=O (stereo not drawn)	NO
9) CC(=NC#N)N(C)Cc1ccc(Cl)nc1	NO
10) CC(C)[C@H](C(=O)O[C@H](C#N)c1cccc(Oc2ccccc2)c1)c1ccc(Cl)cc1	NO

Tell me the recorded outcome of this test for `CCNc1nc(Cl)nc(NC(C)(C)C#N)n1` .
NO

Tell me the recorded outcome of this test for `CCc1cccc(CC)c1N(COC)C(=O)CCl` .
NO

Tell me the recorded outcome of this test for `CSc1nnc(C(C)(C)C)c(=O)n1N` .
NO
